Just for reference, ChEMBL document CHEMBL3132770 is where these values come from.

Assign IC50 to each entry below.
Assay: Cytotoxicity against human LCLC-103H cells assessed as growth inhibition after 96 hrs by crystal violet staining assay
Format: functional, cell-based
Express your answer in µM, writing the number without its unit.

*Q* Need IC50, item O=C(N[C@@H]1C[C@H](Oc2ccc(-c3ccccc3)cc2)C[C@H]1O)C(c1ccccc1)c1ccccc1 (racemic)
*A* 12.3

*Q* Need IC50, item O=C(O)CCCc1ccc(N(CCCl)CCCl)cc1 [CHLORAMBUCIL]
*A* 14.5

*Q* Need IC50, item O=C(CCCc1c[nH]c2ccccc12)N[C@@H]1C[C@H](Oc2ccc(-c3ccccc3)cc2)C[C@H]1O (racemic)
*A* 13.6

*Q* Need IC50, item O=C(N[C@H]1C[C@H](Oc2ccc(-c3ccccc3)cc2)C[C@@H]1O)C(c1ccccc1)c1ccccc1 (racemic)
*A* 13.1

*Q* Need IC50, item N[C@@H](Cc1ccc(N(CCCl)CCCl)cc1)C(=O)O [MELPHALAN]
*A* 4
